Biological target: human Pim-1 (Homo sapiens (Human))
Experiment: biochemical
Type: biochemical
Details: Ki converted from IC50; purified human Pim-1, Pim2tide substrate, ADP-Glo; read-out: hPim1 Ki
Description: The human Pim-1 inhibitory activity of the test compounds was evaluated as follows. (1) Purification of Human Pim-1 […] The protein concentration of the human Pim-1 purified fraction was measured with Pierce 660 nm Protein Assay Reagent (Thermo Fisher Scientific, model number 22660). […] The His-Tag-added human Pim-1 was detected by Western blotting using a mouse anti-His monoclonal antibody (WAKO, model number 011-23091). […]
# if measured Ki < 0.2 nM: rule met  # else: rule not met

1) O=C1NCCN(CCC2CCCCO2)c2c1oc1ccc(C(F)(F)F)cc21 (stereo not shown) ... rule not met
2) CN(C)C(=O)C1CCC(CCN2CCNC(=O)c3oc4ccc(C(F)(F)F)cc4c32)CC1 (stereo not shown) ... rule not met
3) O=C1NC2(CC2)CN(CC[C@H]2CO[C@H](CO)CO2)c2c1oc1ccc(C(F)(F)F)cc21 ... rule not met
4) O=C1NCCN(CC(F)(F)C2CC(O)CCC2(F)F)c2c1oc1ccc(C(F)(F)F)cc21 (stereo not shown) ... rule met
5) CS(=O)(=O)C1CCC(CCN2CCNC(=O)c3oc4ccc(C(F)(F)F)cc4c32)CC1 (stereo not shown) ... rule not met
6) O=C1NCCN(CCC2CCC(CO)CC2)c2c1oc1ccc(C(F)(F)F)cc21 (stereo not shown) ... rule met
7) NC(=O)C1CCC(CCN2CCNC(=O)c3oc4ccc(C(F)(F)F)cc4c32)CC1 (stereo not shown) ... rule not met
8) O=C1NCCN(CC(F)(F)[C@H]2CC[C@H](O)CC2)c2c1oc1ccc(C(F)(F)F)cc21 [Example 165] ... rule met
9) CN1CCN(CC[C@H]2CC[C@](O)(CO)CC2)c2c(oc3ccc(C(F)(F)F)cc23)C1=O ... rule not met
10) O=C1NCCN(CCC2CC(CO)C2)c2c1oc1ccc(C(F)(F)F)cc21 (stereo not shown) ... rule not met
11) CC1(O)CCC(C(F)(F)CN2CCNC(=O)c3oc4ccc(C(F)(F)F)cc4c32)CC1 (single isomer, unassigned) [Example 147] ... rule not met
12) CN1CCN(CC(F)(F)C2CC(O)CCO2)c2c(oc3ccc(C(F)(F)F)cc23)C1=O (stereo not shown) ... rule not met
13) CS(=O)(=O)C[C@H]1CO[C@H](CCN2CCNC(=O)c3oc4ccc(C(F)(F)F)cc4c32)CO1 (racemic) ... rule not met
14) N#CCC1COCC(CCN2CCNC(=O)c3oc4ccc(C(F)(F)F)cc4c32)O1 (racemic) [Example 139] ... rule not met
15) CC1(O)CCC(C(F)(F)CN2CCNC(=O)c3oc4ccc(C(F)(F)F)cc4c32)CC1 (single isomer, unassigned) [Example 148] ... rule met
16) O=C1NCCN(CCC2CCC(CO)(CO)CC2)c2c1oc1ccc(C(F)(F)F)cc21 ... rule met

----------
Target: human Pim-1 (Homo sapiens (Human), UniProt P11309)
Sequence (P11309 whole entry): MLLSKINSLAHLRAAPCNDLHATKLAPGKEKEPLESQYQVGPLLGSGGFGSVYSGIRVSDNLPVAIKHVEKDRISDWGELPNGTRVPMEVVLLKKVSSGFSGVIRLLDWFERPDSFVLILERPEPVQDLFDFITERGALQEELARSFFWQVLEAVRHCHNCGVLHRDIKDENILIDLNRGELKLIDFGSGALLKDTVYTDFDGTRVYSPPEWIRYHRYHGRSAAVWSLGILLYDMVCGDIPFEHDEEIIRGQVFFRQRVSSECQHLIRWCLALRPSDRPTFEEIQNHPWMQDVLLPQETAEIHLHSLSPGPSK
Assay: biochemical
Type: biochemical
Conditions: Ki converted from IC50; purified human Pim-1, Pim2tide substrate, ADP-Glo; read-out: hPim1 Ki
pKi: −log10 of the molar value.
This section presents molecules with their documented pKi values.
readout: pKi

1) O=C1NCCN(CCC2CCC(C(=O)O)CC2)c2c1oc1ccc(C(F)(F)F)cc21 (centres unmarked) ... 8.39
2) O=C1NCCN(CCC2CCC(O)(C(=O)O)CC2)c2c1oc1ccc(C(F)(F)F)cc21 (centres unmarked) ... 8.26
3) C[C@@H]1CN(CC[C@H]2CC[C@](O)(CO)CC2)c2c(oc3ccc(C(F)(F)F)cc23)C(=O)N1 ... 9.87
4) O=C1NCCN(CC(F)(F)[C@@H]2CO[C@@H](CO)CO2)c2c1oc1ccc(C(F)(F)F)cc21 ... 10.36
5) N#CC1(CO)CCC(CCN2CCNC(=O)c3oc4ccc(C(F)(F)F)cc4c32)CC1 (centres unmarked) ... 10.35
6) N#CC1CCOC(CCN2CCNC(=O)c3oc4ccc(C(F)(F)F)cc4c32)C1 (centres unmarked) ... 8.95
7) O=C1CCC(C(F)(F)CN2CCNC(=O)c3oc4ccc(C(F)(F)F)cc4c32)CC1 ... 9.72
8) O=C(OC[C@H]1CO[C@H](CCN2CCNC(=O)c3oc4ccc(C(F)(F)F)cc4c32)CO1)c1ccccc1 ... 8.32
